The origin of these recorded values is patent US10682330B2.

- Assay method text: Solubility in 10 mM phosphate buffer containing 10 to 40% ethylene glycol (Test Example 1)
- Format: physicochemical
- Condition set: aqueous with cosolvent or surfactant or cyclodextrin, Ethylene glycol (EG) 30%; 10 mM phosphate buffer; read-out: Solubility of 1 mg/mL gPTX
Endpoint name: solubility

Prompt line: Quick check: solubility of CC(=O)O[C@H]1C(=O)[C@@]2(C)C([C@H](OC(=O)c3ccccc3)[C@@]3(O)CC1=C(C)C(OC(=O)[C@H](O)[C@@H](NC(=O)c1ccccc1)c1ccccc1)C3)[C@]1(OC(C)=O)CO[C@@H]1C[C@H]2OC(=O)COC1OC(CO)C(O)C(O)C1O (stereo partly shown) ?
Response line: < 1000 µg/mL
